Form field: GI50 (one value per entry).
system: A431 (ovarian cancer) cell line; assay: Anti-cancer activity in vitro, A431 cell line; assay type: cell-based; conditions: A431 Cell Line
observed.property: GI50 (mg/L)

molecule	unit.of.measurement	recorded.result
N.N.[Cl][Pt][Cl] [Cisplatin, cisplatin, reference compound]	mg/L	3.2
COc1cc2c(cc1OC)C(c1ccccc1)CN(C(=S)n1ccnc1)CC2 (stereo not shown)	mg/L	0.70
COc1cc2c(cc1OC)[C@H](c1ccccc1)CN(C(=O)Nc1nc3ccccc3nc1OC)CC2	mg/L	2.04
COc1cc2c(cc1OC)C(c1ccccc1)CN(C(=O)n1ccnc1)CC2 (stereo not shown)	mg/L	0.28

====

Tested on: SUN638 (gastric cancer) cell line
Assay: Anti-cancer activity in vitro, SUN638 cell line
Type: cell-based
Description: The anti-cancer activity and toxicity of the compound according to the present invention were evaluated in vitro using A549 (lung cancer), SUN638 (gastric cancer), HCT116 (rectal cancer), and A431 (ovarian cancer) cell lines. The above four (4) cell lines were purchased from Cancer Research Institute, Seoul National University College of Medicine. […] The experiment was basically carried out according to the process described in Monks, A., et al, Journal of National Cancer Institute. […]
Each entry below lists one item and its recorded GI50 value.
observed.property: GI50

compound	observed.property	recorded.result
O=C(N1CCN(c2nc(NCC3CC3)nc(NCC3CC3)n2)CC1)n1ccnc1 [Compound 62]	GI50	0.61 µg/mL
COc1cc(OC)cc(N2CCN(C(=O)n3ccnc3)CC2)c1 [Compound 58]	GI50	2.39 µg/mL
O=C(N1CCC(c2ccccc2)(c2ccccc2)CC1)n1ccnc1 [Compound 80]	GI50	1.62 µg/mL
C=C(C)CN(CC)c1nc(N2CCN(C(=O)n3ccnc3)CC2)nc(N(CC)CC(=C)C)n1 [Compound 63]	GI50	1.81 µg/mL
Cc1cc(C)cc(N2CCN(C(=O)n3ccnc3)CC2)c1 [Compound 55]	GI50	1.09 µg/mL
C=CCN(CC=C)c1nc(N(CC=C)CC=C)nc(N2CCN(C(=O)n3ccnc3)CC2)n1 [Compound 61]	GI50	2.95 µg/mL
Cc1cc(C)cc(N2CCN(C(=O)n3ccnc3)CC2)c1.Cl [Compound 57]	GI50	1.69 µg/mL

====

tested on: SUN638 (gastric cancer) cell line; assay: Anti-cancer activity in vitro, SUN638 cell line; assay type: cell-based; conditions: SUN638 Cell Line
// boundary case: TGI50 equal to 7 µg/mL maps to NO; strictly smaller maps to YES

molecule	answer.label
N.N.[Cl][Pt][Cl] [Cisplatin, cisplatin, reference compound]	NO
COc1cc2c(cc1OC)C(c1ccc(F)cc1)CN(C(=O)n1ccnc1)CC2 (centres unmarked) [Compound 70]	NO
CCOc1nc2ccccc2nc1NC(=O)N1CCc2cc(OC)c(OC)cc2C(c2ccccc2)C1 (centres unmarked) [Compound 7]	NO
COc1cc2c(cc1OC)C(c1ccc(Cl)cc1)CN(C(=O)n1ccnc1)CC2 (centres unmarked) [Compound 71]	NO
COc1cc2c(cc1OC)C(c1ccccc1)CN(C(=S)n1ccnc1)CC2 (centres unmarked) [Compound 67]	NO
C=CCN(CC=C)c1nc(N(CC=C)CC=C)nc(N2CCN(C(=O)Nc3nc4ccccc4nc3OC)CC2)n1 [Compound 53]	YES
COc1cc2c(cc1OC)[C@H](c1ccccc1)CN(C(=O)n1ccnc1)CC2 [Compound 69]	YES

====

test: Acute toxicity test, single oral administration; format: in vivo; conditions: mouse, in vivo; female ICR mice, single administration per oral, 7-day observation
Here the recorded LD50 at 7 day is given for each entry.

molecule	LD50 at 7 day, mg/kg
C=CCN(CC=C)c1nc(N(CC=C)CC=C)nc(N2CCN(C(=O)n3ccnc3)CC2)n1 [Compound 61]	1140
O=C(N1CCN(c2nc(NCC3CC3)nc(NCC3CC3)n2)CC1)n1ccnc1 [Compound 62]	466

====

test system: A549 (lung cancer) cell line; assay: Anti-cancer activity in vitro, A549 cell line; type: cell-based; conditions: Homo sapiens, A549
Threshold check on GI50: strictly below 2 µg/mL is 1.0; on or above 2 µg/mL is 0.0.

compound	answer.label
COc1cc(OC)cc(N2CCN(C(=O)n3ccnc3)CC2)c1 [Compound 58]	0.0
Cc1cc(C)cc(N2CCN(C(=O)n3ccnc3)CC2)c1.Cl [Compound 57]	1.0
O=C(N1CCC(c2ccccc2)(c2ccccc2)CC1)n1ccnc1 [Compound 80]	1.0
C=C(C)CN(CC)c1nc(N2CCN(C(=O)n3ccnc3)CC2)nc(N(CC)CC(=C)C)n1 [Compound 63]	0.0
Cc1cc(C)cc(N2CCN(C(=O)n3ccnc3)CC2)c1 [Compound 55]	1.0
O=C(N1CCN(c2nc(NCC3CC3)nc(NCC3CC3)n2)CC1)n1ccnc1 [Compound 62]	1.0
C=CCN(CC=C)c1nc(N(CC=C)CC=C)nc(N2CCN(C(=O)n3ccnc3)CC2)n1 [Compound 61]	0.0

====

test system: HCT116 (rectal cancer) cell line; assay: Anti-cancer activity in vitro, HCT116 cell line; assay type: cell-based; conditions: HCT116 Cell Line
observed.property: log10 of GI50 (log10 of the value in µg/mL)

molecule	observed.property	recorded.result
COc1cc2c(cc1OC)C(c1ccccc1)CN(C(=S)n1ccnc1)CC2 (centres unmarked)	log10 of GI50	-0.64
COc1cc2c(cc1OC)C(c1ccc(F)cc1)CN(C(=O)n1ccnc1)CC2 (centres unmarked)	log10 of GI50	0.12
CCOc1nc2ccccc2nc1NC(=O)N1CCc2cc(OC)c(OC)cc2C(c2ccccc2)C1 (centres unmarked)	log10 of GI50	-0.82
COc1cc2c(cc1OC)C(c1ccccc1)CN(C(=O)n1ccnc1)CC2 (centres unmarked)	log10 of GI50	-0.72
COc1cc2c(cc1OC)[C@H](c1ccccc1)CN(C(=O)Nc1nc3ccccc3nc1OC)CC2	log10 of GI50	0.12
COc1cc2c(cc1OC)C(c1ccc(F)cc1)CN(C(=O)Nc1nc3ccccc3nc1OC)CC2 (centres unmarked)	log10 of GI50	-0.82
COc1cc2c(cc1OC)[C@@H](c1ccccc1)CN(C(=O)n1ccnc1)CC2	log10 of GI50	-0.62
COc1cc2c(cc1OC)[C@@H](c1ccccc1)CN(C(=O)Nc1nc3ccccc3nc1OC)CC2	log10 of GI50	-0.92

====

Experiment: Acute toxicity test, single oral administration
Format: in vivo
Settings: both sexes, mouse, in vivo; male and female ICR mice, single administration per oral, 7-day observation
Method: (1) Test Animal: SPF ICR mouse (2) Age of the Test Animal: 4 weeks from acquisition 5 weeks from the start of administration (3) Gender and Number of Test Animal: respective 18 he and she-mice (6 groups in each of he and she-mice, 3 mice per group) (4) Breeding Environment: Temperature 22±3° C., Relative humidity […], Illumination 150-300 Lux (5) Method of Administration: Single administration per oral (6) Items to be Observed: General symptoms, appearance, weight and autopsy of dead mice […]

smiles.code	unit.of.measurement	LD50 at 7 day
C=CCNc1nc(NCC=C)nc(N2CCN(C(=O)NC(c3ccccc3)c3ccccc3)CC2)n1	mg/kg	2000
Cc1cc(C)cc(N2CCN(C(=O)n3ccnc3)CC2)c1.Cl	mg/kg	1160

====

test system: SUN638 (gastric cancer) cell line; test: Anti-cancer activity in vitro, SUN638 cell line; type: cell-based; details: SUN638 Cell Line; read-out: GI50
observed.property: GI50 (µg/mL)

smiles.code	system.under.test	recorded.result
C=CCNc1nc(NCC=C)nc(N2CCN(C(=O)NC(c3ccccc3)c3ccccc3)CC2)n1	SUN638 (gastric cancer) cell line	2.75
COc1nc2ccccc2nc1NC(=O)N1CCN(C(c2ccccc2)c2ccccc2)CC1	SUN638 (gastric cancer) cell line	1.62
COc1nc2ccccc2nc1NC(=O)N1CCC(c2ccccc2)(c2ccccc2)CC1	SUN638 (gastric cancer) cell line	0.15
Cc1cc(C)cc(N2CCN(C(=S)n3ccnc3)CC2)c1	SUN638 (gastric cancer) cell line	1.34
O=C(NC(c1ccccc1)c1ccccc1)N1CCC(c2ccccc2)(c2ccccc2)CC1	SUN638 (gastric cancer) cell line	0.63
COc1ccc(C#N)cc1NC(=O)N1CCN(c2cc(C)cc(C)c2)CC1	SUN638 (gastric cancer) cell line	2.51

====

tested on: HCT116 (rectal cancer) cell line; assay: Anti-cancer activity in vitro, HCT116 cell line; assay type: cell-based; settings: HCT116 Cell Line
Field: label. Allowed values: t (GI50 < 0.4 µg/mL) or f (GI50 >= 0.4 µg/mL).

compound	answer.label
N.N.[Cl][Pt][Cl] [Cisplatin, cisplatin, reference compound]	f
COc1ccc2c(c1)C(c1ccccc1)CN(C(=O)n1ccnc1)CC2 (stereo not drawn) [Compound 72]	t
COc1cc2c(cc1OC)C(c1ccc(Cl)cc1)CN(C(=O)n1ccnc1)CC2 (stereo not drawn) [Compound 71]	f
COc1ccc2c(c1)C(c1ccc(Cl)cc1)CN(C(=O)n1ccnc1)CC2 (stereo not drawn) [Compound 74]	f
COc1cc2c(cc1OC)[C@H](c1ccccc1)CN(C(=O)n1ccnc1)CC2 [Compound 69]	t
